System: human hepatocytes
Assay: Metabolic stability in human hepatocytes
Conditions: 1 μM test compound, 50% human serum, percentage of liver blood flow
attributeMeasured: Hepatic clearance - QH[%] in human hepatocytes (%)

Sample records with Hepatic clearance - QH[%] in human hepatocytes:
The recorded Hepatic clearance - QH[%] in human hepatocytes for C[C@@H](NC(=O)c1cc([C@H]2CC[C@H](N3CCC(F)C(O)C3)CC2)c2ncnn2c1)c1cccc(C(F)F)c1F (single isomer, unassigned) [Example trans-E61b] is 30

The recorded Hepatic clearance - QH[%] in human hepatocytes for "C[C@@H](NC(=O)c1cc(N2CCC(N3CCC[C@H](O)C3)CC2)c2ncnn2c1)c1cccc(C(F)F)c1F" is 17

The recorded Hepatic clearance - QH[%] in human hepatocytes for "C[C@@H](NC(=O)c1cc(N2CCC(N3CC[C@@H](O)C3)CC2)c2ncnn2c1)c1cccc(C(F)(F)F)c1F" is 15

I: C[C@@H](NC(=O)c1cc(N2CCC(N3CCC[C@H]3CO)CC2)c2ncnn2c1)c1cccc(C(F)(F)F)c1F
II: C[C@@H](NC(=O)c1cc(N2CCC(N(C)C)CC2)c2ncnn2c1)c1cccc(C(F)(F)F)c1F
III: C[C@@H](NC(=O)c1cc(N2CCC(N3CCCC(O)CC3)CC2)c2ncnn2c1)c1cccc(C(F)(F)F)c1F (stereo partly drawn) [Example E43b]
Incoming: Let's sort these by Hepatic clearance - QH[%] in human hepatocytes, smallest first. Go ahead? Reply with the labels, ordered as the question asks.
Outgoing: II, I, III
(II: 6%, I: 13%, III: 25%)
